For each of the compounds below, state its cell viability.
system: Calu-3; test: cell viability relative to DMSO; higher = less toxic; conditions: 72 h; 1000 nM
Write the value in % as a bare number.

stdin: Find the measured cell viability: item CCc1nc(-c2cccc(C)c2)c(-c2ccnc(NC(=O)c3ccccc3)c2)s1 , target or system Calu-3.
stdout: 93.7

stdin: Checklist item: cell viability tested on Calu-3, entry C=CCNC(=O)c1cc([N+](=O)[O-])cc2c(=O)[nH]c(Nc3ccc(Cl)c(Cl)c3)nc12 , value?
stdout: 102

stdin: # query: cell viability | item O=C(Nc1ccc(Cl)cc1)Nc1cccc(-c2cccc(N3CCCC3)n2)c1 | system: Calu-3
stdout: 97.9

stdin: Checklist item: cell viability tested on Calu-3, entry O=C(O)c1cc(=O)[nH]c(=O)[nH]1 , value?
stdout: 99.6

stdin: Lab note: need cell viability with Calu-3 for entry CN1CCC[C@@H](CC2c3ccccc3Sc3ccccc32)C1 (racemic) , please look it up.
stdout: 100

stdin: I'm curious: which cell viability was measured for COc1ccc(OC)c2c(=S)c3ccccc3[nH]c12 tested on Calu-3?
stdout: 108

stdin: Lab note: need cell viability for C=CC(=O)Nc1cccc(Oc2nc(Nc3ccc(N4CCN(C)CC4)cc3)nc3ccsc23)c1 on Calu-3, anyone have it?
stdout: 68.4

stdin: Calu-3 / cell viability / CNC1CCCN(c2c(F)cc3c(=O)c(C(=O)O)cn(C4CC4)c3c2OC)C1 (centres undefined) : value?
stdout: 97.7

stdin: Fill in the recorded cell viability for this compound, with Calu-3 as test system: NC(=O)c1cn(Cc2c(F)cccc2F)nn1 [rufinamide]
stdout: 101

###

tested on: Caco-2; test: cell viability relative to DMSO; higher = less toxic; details: 72 h; 1000 nM
experimental readout: cell viability (%)
Write down the numeric answer in % and omit the unit.

stdin: For the compound O=C(Cn1ccnc1[N+](=O)[O-])NCc1ccccc1 , what cell viability is on record?
stdout: 93.2

stdin: What does the record list as cell viability for CCOc1cc(/C=C2/C(=O)N(c3ccccc3)N=C2C)cc(Cl)c1OCC(=O)OC ?
stdout: 92.9

stdin: Consider the compound shown here: CC(C)=CCC[C@](C)(O[C@@H]1O[C@H](CO)[C@@H](O)[C@H](O)[C@H]1O)[C@H]1CC[C@]2(C)[C@@H]1[C@H](O)C[C@@H]1[C@@]3(C)CC[C@H](O[C@@H]4O[C@H](CO)[C@@H](O)[C@H](O)[C@H]4O[C@@H]4O[C@H](CO)[C@@H](O)[C@H](O)[C@H]4O)C(C)(C)[C@@H]3CC[C@]12C [ginsenoside-RD] What is its recorded cell viability?
stdout: 92.3

stdin: Recorded cell viability of Clc1cccc(N2CCNCC2)c1 , please.
stdout: 92.4

stdin: I would be grateful if you could share the reported cell viability for OCC(O)CN1CCN(c2ccccc2)CC1 (stereo not drawn) .
stdout: 91.9

stdin: Quick check: cell viability of CNC(=O)c1c(-c2ccc(F)cc2)oc2cc(N(CCO)S(C)(=O)=O)c(C3CC3)cc12 ?
stdout: 99

stdin: Report cell viability for CC(C)(CC(=O)N1CCCC1)NCC(=O)N1C[C@@H](F)C[C@H]1C#N please.
stdout: 95.6

stdin: # lookup: cell viability of CC#CCOC(=O)c1c(C)nc2sc3c(c2c1N)CCC(O)C3 (stereo not drawn)
stdout: 92.3

stdin: // query cell viability value for entry CCN(CCNC(=O)Nc1ccccc1Br)c1cccc(C)c1
stdout: 102

stdin: Recorded cell viability of OC[C@H]1O[C@H]([S-])[C@H](O)[C@@H](O)[C@@H]1O.[Au+] , please.
stdout: 91.3

stdin: Could you tell me which cell viability is on file for C=CC(=O)Nc1cccc(Oc2nc(Nc3ccc(N4CCN(C)CC4)cc3)nc3ccsc23)c1 ?
stdout: 83.5

stdin: State the recorded cell viability for this entry: CC(=O)[C@@]1(O)CC[C@H]2[C@@H]3C[C@H](C)C4=CC(=O)C=C[C@]4(C)[C@@]3(F)[C@@H](O)C[C@@]21C
stdout: 99.7

stdin: I would be grateful if you could share the reported cell viability for COc1ccc2c(c1)c(C1=C(c3c[nH]c4ccccc34)C(=O)NC1=O)cn2CCCN(C)C .
stdout: 101

stdin: Name the recorded cell viability for COc1ccc(CC(C)NCC(O)c2ccc(O)c(NC=O)c2)cc1 (stereo not drawn) .
stdout: 100

stdin: Any idea what its cell viability is? The compound is C[C@](N)(Cc1ccc(O)c(O)c1)C(=O)O
stdout: 106

stdin: Bench note: what cell viability did CN1CCN(CC(=O)N2c3ccccc3C(=O)Nc3cccnc32)CC1 [pirenzepine] show?
stdout: 93.9

stdin: # input compound: NCC1CC(=O)N(Cc2ccccc2)C1 (stereo not drawn) ; wanted: its cell viability
stdout: 97.8

stdin: Consider the compound shown here: N=C(N)c1ccc(N2CCN(C3CCN(CC(=O)O)CC3)CC2)cc1 What is its recorded cell viability?
stdout: 92.5

###

system: HepG2; test: cell viability relative to DMSO; higher = less toxic; details: 72 h; 1 nM
experimental readout: cell viability (%)
Give the quantity in %, number only.

stdin: // query cell viability value for entry NC(=O)c1cn(Cc2c(F)cccc2F)nn1 [rufinamide]
stdout: 109

stdin: Which cell viability reading was recorded for the molecule O=C(Nc1nc2cccc(-c3ccc(CN4CCS(=O)(=O)CC4)cc3)n2n1)C1CC1 ?
stdout: 100

stdin: Which cell viability is listed for CC(C)(C)CC(C)(C)c1ccc(O)c(Cc2ccc(Cl)cc2Cl)c1 ?
stdout: 109

stdin: Look up cell viability: CC(C)(C)NC(=O)[C@@H](c1cccnc1)N(C(=O)c1ccco1)c1ccc(C(C)(C)C)cc1
stdout: 96.3

stdin: Using the record for O=c1[nH]c(=O)c2ccccc2o1 , report its cell viability.
stdout: 96

###

For each of the molecules below, state its cell viability.
system: Caco-2; assay: cell viability relative to DMSO; higher = less toxic; conditions: 72 h; 1000 nM
Number only, in %; omit the unit.

stdin: # get_value(readout= cell viability, system= Caco-2) for COc1ccc(Nc2nccc(NCCO)n2)cc1
stdout: 95.8

stdin: Requested read-out cell viability, target or system Caco-2, entry COC(=O)C1=C(C)NC(C)=C(C(=O)OC/C=C/c2ccccc2)C1c1cccc([N+](=O)[O-])c1 (stereo not given)
stdout: 91.5

stdin: For the record O=C(c1ccc(Cl)cc1)N(Cc1ccccc1)C1CCCCC1 , what value of cell viability is listed for Caco-2?
stdout: 102

stdin: Param readout = cell viability; param system = Caco-2; param query = Oc1c(Cl)cc(Cl)c(Cl)c1Cc1c(O)c(Cl)cc(Cl)c1Cl ; response: value
stdout: 91.6

stdin: # value lookup — system Caco-2, readout cell viability, item C1CCC2(CC1)CCNCC2 [4,4-pentamethylenepiperidine]
stdout: 91.2

###

Field: cell viability. Provide a value for each of the compounds that follow.
tested on: Caco-2; experiment: cell viability relative to DMSO; higher = less toxic; settings: 72 h; 100 nM
The answer should read as a number with its unit following.

stdin: Which cell viability is listed for O=C(/C=C/c1cccc(S(=O)(=O)Nc2ccccc2)c1)NO ?
stdout: 89.3%

stdin: Param item = C[C@H]1O[C@@H](Oc2c(-c3cc(O)c(O)c(O)c3)oc3cc(O)cc(O)c3c2=O)[C@@H](O)[C@@H](O)[C@@H]1O ; retrieve measured cell viability.
stdout: 100%

stdin: Entry under review: O=[N+]([O-])c1ccccc1S(=O)(=O)NCC1CCC(CNC[C@H]2CCc3ccccc3C2)CC1 (stereo not given in full) . Reported cell viability?
stdout: 98.8%

stdin: Can you share its cell viability? I mean this compound: NC(=O)NC1NC(=O)NC1=O (stereo not given)
stdout: 96.3%

stdin: What value of cell viability has been reported for the following compound? CCOC(=O)c1ccc(-c2ccc(OC(=O)N(C)Cc3cccc(-c4ccncc4)c3)cc2)cc1
stdout: 105%

###

test system: A549-ACE2; assay: drug-induced phospholipidosis relative to tamoxifen; higher = more phospholipidosis; conditions: 10 µM; 72 h
experimental readout: drug-induced phospholipidosis (%)
Give a bare numeral; the unit % is implied.

stdin: Name the reported drug-induced phospholipidosis value associated with the compound Cc1cccc(/C=N/Nc2cc(N3CCOCC3)nc(OCCc3ccccn3)n2)c1 [STA-5326]
stdout: 59.3

stdin: Can you look up the measured drug-induced phospholipidosis of NCCc1c[nH]c2ccc(C(N)=O)cc12 [5-carboxamidotryptamine] for me?
stdout: 0.562

stdin: Consider the compound shown here: CCN(CC)CCCCN1c2ccccc2Oc2ccc(Cl)cc21 [10-DEBC] What is its recorded drug-induced phospholipidosis?
stdout: 98.7

stdin: Requested field: drug-induced phospholipidosis. Item: CN1CCC[C@@H](CC2c3ccccc3Sc3ccccc32)C1 (racemic) [metixene]
stdout: 82.7

###

test system: U2OS; experiment: cell viability relative to DMSO; higher = less toxic; conditions: 72 h; 1 nM
Provide the reported cell viability of each item.
Express your answer in %, writing the number without its unit.

stdin: Enter reported cell viability observed with U2OS for N=C(N)NCCC[C@@H](N)C(=O)N[C@@H](CCCNC(=N)N)C(=O)N1CCC[C@H]1C(=O)N1C[C@H](O)C[C@H]1C(=O)NCC(=O)N[C@@H](Cc1cccs1)C(=O)N[C@@H](CO)C(=O)N1Cc2ccccc2C[C@@H]1C(=O)N1[C@H](C(=O)N[C@@H](CCCNC(=N)N)C(=O)O)C[C@@H]2CCCC[C@@H]21 [icatibant-acetate]
stdout: 102

stdin: Missing value: cell viability, U2OS, entry Cc1cc2ncc(C(=O)NCC(C)(C)NCC(=O)N3CCC[C@H]3C#N)cn2n1 . Fill in?
stdout: 99.9

stdin: For the record CS(=O)(=O)c1ccc(-c2nnc(/C=C/c3nnc(-c4ccc(C#N)cc4)o3)n2-c2ccccc2Cl)nc1 , what value of cell viability is listed for U2OS?
stdout: 94.7

stdin: Provide value of cell viability for this record tested with U2OS: CC(=O)O[C@H]1C(=O)[C@@]2(C)[C@H]([C@H](OC(=O)c3ccccc3)[C@]3(O)C[C@H](OC(=O)[C@H](O)[C@@H](NC(=O)c4ccccc4)c4ccccc4)C(C)=C1C3(C)C)[C@]1(OC(C)=O)CO[C@@H]1C[C@@H]2O
stdout: 101

stdin: Reported cell viability for U2OS, given NC(=O)N1CCC(CC(=O)N2CCC([C@H]3c4ncc(Br)cc4CCc4cc(Cl)cc(Br)c43)CC2)CC1 ?
stdout: 97.5

stdin: Value wanted: cell viability (U2OS) of entry O=C(CCCCCN1C(=O)c2cccc3cccc(c23)C1=O)NO
stdout: 102

stdin: Entry O=C1Cc2c([nH]c3ccc(Br)cc23)-c2ccccc2N1 , system U2OS: what cell viability was measured?
stdout: 98.4

stdin: Please provide the recorded cell viability for CC(C)(Oc1ccc(C2CC2(Cl)Cl)cc1)C(=O)O (stereo unspecified) [ciprofibrate] , tested on U2OS.
stdout: 93.2

stdin: Under U2OS: cell viability value of CCCCNc1c(C(=O)OCC)c(C)nc2c1cnn2CC [tracazolate] ?
stdout: 101

stdin: For the record Cc1cc(C)nc(NS(=O)(=O)c2ccc(NC(=S)NC(=O)COc3ccc(Br)cc3Cl)cc2)n1 , what value of cell viability is listed for U2OS?
stdout: 95.6

stdin: State its cell viability on U2OS: CN1CCN(c2ccc(-c3cccc(CN4CCOCC4)c3)cc2NC(=O)c2c[nH]c(=O)cc2C(F)(F)F)CC1
stdout: 102

stdin: What is its cell viability for U2OS? Entry: CO/N=C(\C(=O)N[C@@H]1C(=O)N2C(C(=O)OCOC(=O)C(C)(C)C)=C(C)CS[C@H]12)c1csc(N)n1
stdout: 102

stdin: What value of cell viability on U2OS does CNCCC=C1c2ccccc2CCc2ccccc21 have?
stdout: 99.5

stdin: API: value(readout= cell viability, system= U2OS, query= COc1ccc(OC)c2c(=S)c3ccccc3[nH]c12 )
stdout: 102

stdin: Could you share what cell viability was measured for Cc1c(N)cccc1Cn1ccc(OCCc2cccs2)cc1=O , tested on U2OS?
stdout: 99.5

stdin: Enter reported cell viability observed with U2OS for Cc1cccc(/C=N/Nc2cc(N3CCOCC3)nc(OCCc3ccccn3)n2)c1
stdout: 97.6

Value source: the supplement of paper PMC13380429
